Target: MBP-FL DDX3X (human, UniProt O00571 1-662)
Sequence (O00571 whole entry): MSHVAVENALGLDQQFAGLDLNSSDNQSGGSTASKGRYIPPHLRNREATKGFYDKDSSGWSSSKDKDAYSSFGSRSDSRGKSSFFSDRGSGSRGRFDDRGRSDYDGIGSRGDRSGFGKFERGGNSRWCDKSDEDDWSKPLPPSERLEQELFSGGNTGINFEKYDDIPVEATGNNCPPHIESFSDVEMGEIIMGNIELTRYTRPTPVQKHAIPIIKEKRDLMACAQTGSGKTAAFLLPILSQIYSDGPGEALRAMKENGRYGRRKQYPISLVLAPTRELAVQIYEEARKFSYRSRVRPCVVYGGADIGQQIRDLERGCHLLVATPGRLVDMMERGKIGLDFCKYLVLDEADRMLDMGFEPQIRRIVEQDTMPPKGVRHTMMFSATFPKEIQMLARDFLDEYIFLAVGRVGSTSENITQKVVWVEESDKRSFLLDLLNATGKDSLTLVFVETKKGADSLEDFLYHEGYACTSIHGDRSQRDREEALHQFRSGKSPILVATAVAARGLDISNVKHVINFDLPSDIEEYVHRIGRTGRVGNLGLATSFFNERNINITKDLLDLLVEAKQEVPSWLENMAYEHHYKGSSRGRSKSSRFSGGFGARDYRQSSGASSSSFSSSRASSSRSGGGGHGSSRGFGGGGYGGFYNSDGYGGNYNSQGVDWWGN
Assay: EMSA; 1 mM ATP-Mg; EMSA: 20 mM K-phosphate pH 7.0, 125 mM KCl, 1 mM DTT, 0.005% Tween-20, 10% glycerol (1 mM ATP-Mg for MBP-FL/Core-C), gel at room temperature; ITC: 20 mM K-phosphate pH 7.0, 50 mM KCl, 25 C; NMR: 200 mM KCl (also 120 mM), 10 C, 50 uM
Settings: protein: recombinant; tags: N-terminal His6-MBP; label: 5'-FAM; parallel G4, dimer of 2 strands
value_type: pKd
One number for each entry, as −log10 of the molar value.

// pKd lookup, key: UAGGGUUAGGGU (structured_RNA) [FAM-telomeric GQ RNA]
7.27
